This collection of values is drawn from patent US5449783A.

test system: carrageenin-induced paw edema; experiment: Rat carrageenin-induced paw edema experiment B (intravenous); format: in vivo, Male Wistar rats; details: 1 mg/kg, immediately before carrageenin, 3 hours after induction
// reported Inhibition ratio per item
reported.metric: Inhibition ratio

> print(dat)
                                   compound   reported.metric  result
1  COc1ccc2c(c1)c(CC(=O)O)c(C)n2C(=O)c1ccc(Cl)cc1 [indomethacin, reference compound]  Inhibition ratio   47.4%
2  COc1ccc(-c2sc(NS(=O)(=O)C(F)(F)F)nc2-c2ccccc2)cc1 [Ex. 32]  Inhibition ratio   48.1%
3  O=[N+]([O-])c1ccc(-c2sc(NS(=O)(=O)C(F)(F)F)nc2-c2ccccc2)cc1 [Ex. 17]  Inhibition ratio   36.6%
4  O=S(=O)(Nc1nc(-c2ccccc2)c(-c2ccc(F)cc2)s1)C(F)(F)F [Ex. 37]  Inhibition ratio   46.4%
5  O=S(=O)(Nc1nc(-c2ccccc2)c(-c2ccccc2)s1)C(F)(F)F [Ex. 1]  Inhibition ratio   41.3%
6  COc1ccc(-c2nc(NS(=O)(=O)C(F)(F)F)sc2-c2ccccc2)cc1 [Ex. 10]  Inhibition ratio   52.8%

---

tested on: biosynthesis of 5-HETE; assay: Effect of inhibiting biosynthesis of 5-HETE in neutrophiles; format: cell-based, Hartley guinea pigs; details: 10^-6; A 23187, 14C-arachidonic acid
reported.metric: Inhibition ratio (%)

> print(dat)
                                   compound        target.or.system  unit.abbreviation  readout.number
1  COc1ccc(-c2nc(NS(=O)(=O)C(F)(F)F)sc2-c2ccccc2)cc1  biosynthesis of 5-HETE                  %            45.1
2  COc1ccc(-c2sc(NS(=O)(=O)C(F)(F)F)nc2-c2ccccc2)cc1  biosynthesis of 5-HETE                  %            44.8
3  CC(Cc1ccc(O)c(O)c1)C(C)Cc1ccc(O)c(O)c1 (stereo not drawn) [NDGA, nordihydroguairetic acid, reference compound]  biosynthesis of 5-HETE                  %            43.0
4  O=[N+]([O-])c1ccc(-c2sc(NS(=O)(=O)C(F)(F)F)nc2-c2ccccc2)cc1  biosynthesis of 5-HETE                  %            47.3
5  O=S(=O)(Nc1nc(-c2ccccc2)c(-c2ccc(F)cc2)s1)C(F)(F)F  biosynthesis of 5-HETE                  %            48.7
6  O=S(=O)(Nc1nc(-c2ccccc2)c(-c2ccccc2)s1)C(F)(F)F  biosynthesis of 5-HETE                  %            40.5
